Tested on: PF3D7_0420300 AP2 domain 1 (GST-tagged)
Assay: gcPBM binding intensity (ln(normalized median fluorescence intensity)); higher = stronger DNA binding
In all, about 25,000 sequences were measured (“ln(normalized median fluorescence intensity)”: median about 9.3, highest 2% from about 10 on). Shown is part of a subset that was picked to be rich in the highest values.
MEASURED_PROPERTY: gcPBM binding intensity (ln)

INSERT INTO results (entry_sequence, readout_number) VALUES
  ('AACATAAAAAAAATATGTACATATATAATATATATA [XGTACX_site3764]', 9.29),
  ('AAAAACTAACTGTATTGTACTCTCTTATAAATTCAC [XGTACX_site8967]', 9.15),
  ('TAAACACCCATACATACACACATACATACACCCATA [CACACA_site5125]', 9.58),
  ('ATACATATATTAGGATGTACGTTTATTTTAGTTATT [XGTACX_site7169]', 9.47),
  ('TATTAAACTAAATGTAGTACATACACAAAAGAAACC [XGTACX_site606]', 9.75),
  ('AAAAAAAAAAAAAACACACACACAAATACAAATACA [CACACA_site414]', 10.1),
  ('AAAAAAAAAAAAAACACACACACACCCACATATACA [CACACA_site2663]', 10.1),
  ('TTTATATAATTTTAATGTACATATATATATATAAAT [XGTACX_site4381]', 8.98),
  ('TACATACATACATACACACACACATATATATACATA [CACACA_site853]', 10.1),
  ('AATGGCAAAATAGGCACACACACATATACATATATA [CACACA_site1058]', 10.1),
  ('TTTCCCCCATATAATGAACACACACCCTCCTCATAA [CACACA_site8110]', 9.85),
  ('GAAGGAAATAATAGTAGTACAAATGGTAAGAAATAT [XGTACX_site5845]', 9.7),
  ('AAAAAAAAAAAAAACACACATACACGCCCACCCATA [CACACA_site3391]', 10.2),
  ('CCCCATATAATGAACACACACACTCCTCATAATTAA [CACACA_site628]', 10.2),
  ('AAAAAAAAAAAAAACACACACACACCCATACCCATA [CACACA_site5577]', 10.1),
  ('TTATGGTTATACATATGTACATATATATATATATAT [XGTACX_site1494]', 9.29),
  ('AACCACATACATATAACACACATATACAATATATAT [CACACA_site8607]', 9.65),
  ('AGTGGACTTTTTTTTTTTTTTTTTTTTTTTTTATTA [CACACA_negctrl_site547]', 9.2),
  ('TGGAAAAATAGGCACACACACATATATACATATATA [CACACA_site1297]', 10);

---

System: PF3D7_0420300 AP2 domain 1 (GST-tagged)
Experiment: gcPBM binding intensity (ln(normalized median fluorescence intensity)); higher = stronger DNA binding
Over roughly 25,000 sequences, “ln(normalized median fluorescence intensity)” has its median near 9.3; the highest 2% begin near 10. The list comes from a sample in which the highest values are over-represented; it also holds close analogues and randomly drawn sequences.
Reported gcPBM binding intensity (ln) values are given for each entry in this list.
MEASURED_PROPERTY: gcPBM binding intensity (ln)

INSERT INTO results (entry_sequence, result) VALUES
  ('ATGCATATATTTATGTGTACATATATTTGTAGGGGG [XGTACX_site6063]', 10.7),
  ('AATAAAGCAATAAATACACACATATATATATATATA [CACACA_site2934]', 9.31),
  ('AATAGTAAAAGATATACACACACCAAAAAATATAAT [CACACA_site5293]', 9.99),
  ('TGTAAATATATATATACACACACACCGAAGCAATAG [CACACA_site8960]', 10.1),
  ('TAAATATATATATACACACACACCAAAGCAATAGAT [CACACA_site2940]', 10.3),
  ('ATATATATATATATATGTACTCATATTTTATTATTT [XGTACX_site898]', 9),
  ('TTTGTCATTTTATTATGTACTCAGCATATAGGGGGG [XGTACX_site505]', 10.5),
  ('TAAATATATTTATACACACACACCAAAGCAATAGAT [CACACA_site7393]', 10.3),
  ('TATAAATAAATAGATACACACATATTTATAAATACA [CACACA_site6219]', 9.56);

---

Tested on: PF3D7_0420300 AP2 domain 1 (GST-tagged)
Assay: gcPBM binding intensity (ln(normalized median fluorescence intensity)); higher = stronger DNA binding
The full ranking holds about 25,000 sequences; the median of “ln(normalized median fluorescence intensity)” is about 9.3, and the highest 2% start at about 10. Many of the other results were omitted from the sample, so the highest values are more common in it than they were.
Below, each entry is listed with its recorded gcPBM binding intensity (ln).
MEASURED_PROPERTY: gcPBM binding intensity (ln)

INSERT INTO measurements (entry_sequence, measured_property, result) VALUES
  ('TATATACCTATATACACACACATATATTATAGATAT [CACACA_site6266]', 'gcPBM binding intensity (ln)', 9.82),
  ('TATTTATACCTATACACACACACACGGATATTTATA [CACACA_site7123]', 'gcPBM binding intensity (ln)', 10.2),
  ('TATTTATATTTATATACACACATATATACCTATATA [CACACA_site7820]', 'gcPBM binding intensity (ln)', 9.48),
  ('ATTTGGCAGAAACACACACACACACCCACCCACATA [CACACA_site589]', 'gcPBM binding intensity (ln)', 10.4),
  ('AAGAATATTTTTTTCTGTACATATAATTTATATACG [XGTACX_site5801]', 'gcPBM binding intensity (ln)', 9.13),
  ('TATATATATTTATACACACACATATATTTATATATT [CACACA_site484]', 'gcPBM binding intensity (ln)', 9.7),
  ('TAGAAGCAGAAACACACACACATACATACACATACA [CACACA_site1467]', 'gcPBM binding intensity (ln)', 9.99),
  ('CATATTTGGAAACACACACACATATTTATATATATA [CACACA_site3569]', 'gcPBM binding intensity (ln)', 9.95),
  ('ATAATTTGGAAACACACACACACACCCACATATATA [CACACA_site2286]', 'gcPBM binding intensity (ln)', 10.3);

---

System: PF3D7_0420300 AP2 domain 1 (GST-tagged)
Test: gcPBM binding intensity (ln(normalized median fluorescence intensity)); higher = stronger DNA binding
In all, about 25,000 sequences were measured (“ln(normalized median fluorescence intensity)”: median about 9.3, highest 2% from about 10 on). Many of the other results were omitted from the sample, so the highest values are more common in it than they were.
MEASURED_PROPERTY: gcPBM binding intensity (ln)

INSERT INTO assay_data (entry_sequence, readout_number) VALUES
  ('AATATATAGCTAAAAACACACAAATATATACGCATA [CACACA_site3608]', 9.69),
  ('AAAATGAATATAATGACGCACACTTAAAATTGTTAA [CACACA_site2509]', 9.29),
  ('TTAAAATGTTGTAACGTGCACATTTTGTGGAAATCA [GTGCAC_site9559]', 9.07),
  ('TAAATAAATACATACACACACATACCTATATTTATA [CACACA_site7466]', 9.93),
  ('CTATATCATTTTCTAGCACACACATTGTTATTACCT [CACACA_site8204]', 9.84),
  ('ATTAAACATAAATATGCACACATATACATATATTCA [CACACA_site8850]', 9.4),
  ('ATTGGACTATAAATAGGTACACATATATATATATAT [XGTACX_site7562]', 9.59),
  ('TATATATATATAGGTTGTACATTTTGATGTTTACGT [XGTACX_site5503]', 9.42),
  ('ATTTTCTTTTCCATAGTGCAATATAATTATCCATCA [GTGCAC_site9547]', 9.29);

---

Test system: PF3D7_0420300 AP2 domain 1 (GST-tagged)
Assay: gcPBM binding intensity (ln(normalized median fluorescence intensity)); higher = stronger DNA binding
In all, about 25,000 sequences were measured (“ln(normalized median fluorescence intensity)”: median about 9.3, highest 2% from about 10 on). Many of the other results were omitted from the sample, so the highest values are more common in it than they were.
MEASURED_PROPERTY: gcPBM binding intensity (ln)

INSERT INTO results (entry_sequence, readout_number) VALUES
  ('CACATACAGACATACACACACATATAGATTAATATA [CACACA_site6399]', 9.93),
  ('AAAAAAAAAAGACACACACACACACGGAGATATATA [CACACA_site6216]', 10.3),
  ('TGTGGGAATAACCACACACACACACCCATATATATA [CACACA_site5876]', 10.1),
  ('AAAAAAAAAAGACACACACACATATTTATTTATATA [CACACA_site6484]', 9.93),
  ('TAAAAGGATACATATACACACATATATATATATATA [CACACA_site2791]', 9.32),
  ('TATGATTTTTATATATGTACGTATGGTGTTTTACAA [XGTACX_site6100]', 9.21),
  ('AATACATACATACATACATGCATATATATATATATA [TGCATGCA_site462]', 9.42),
  ('ACTTGACACGGACACACACACATATATAAAAAAAAA [CACACA_site4576]', 9.87),
  ('CCATAAAAAGGATACACACACACACCCACATATATA [CACACA_site903]', 10.2),
  ('GTTTGGTGGTGTTTTGGTACGTACGGGGGTGTATGT [XGTACX_site1211]', 10.1),
  ('ATAAAATGAACAAACACACACACATATATTTATATA [CACACA_site7181]', 10.1),
  ('ATCAAGCACGAACACACACACACACGCACGCCCACA [CACACA_site6308]', 10.2),
  ('ATTAAACCGTGGGAGCACACACACACACACACACAT [TGCATGCA_negctrl_site72]', 10.8),
  ('AAAAAAAAAAGACACACACACAAAAAAAGATATATA [CACACA_site6645]', 10.2),
  ('ATTTTTTTATAAAATTTTTTATATATTAAATATTAT [CACACA_negctrl_site135]', 9.04),
  ('AGTGTATTAAATTTTGAACACACAAAATAAAACATA [CACACA_site8483]', 9.43),
  ('TGAGAGTTCTCATATGCACACAAAAAACTTTCATTT [CACACA_site7898]', 9.28),
  ('AAATATATATATAGTACATGCAGTAGATAATTTAAT [TGCATGCA_site299]', 9.51),
  ('TTTTCATTAAGATACTTATAATAGTTTATTAGTAAA [CACACA_negctrl_site586]', 8.77);
